Test system: H460 (large cell lung carcinoma)
ASSAY: In vitro antiproliferation assay, H460 cells
Format: cell-based
SETUP CONDITIONS: Homo sapiens, NCI-H460
pIC50: −log10 of the molar value.
PARAMETER: pIC50

{"MOL SMILES": "Cc1cc(Nc2ncc(F)c(N[C@H]3[C@@H](C(N)=O)[C@@H]4C=C[C@H]3C4)n2)ccc1N1CCN(C)CC1", "REPORTED": "≥ 8.00"}

* * *

STUDY TARGET: Aurora kinase-B (Homo sapiens, UniProt Q96GD4)
Construct: endogenous in cells
Sequence (Q96GD4 whole entry): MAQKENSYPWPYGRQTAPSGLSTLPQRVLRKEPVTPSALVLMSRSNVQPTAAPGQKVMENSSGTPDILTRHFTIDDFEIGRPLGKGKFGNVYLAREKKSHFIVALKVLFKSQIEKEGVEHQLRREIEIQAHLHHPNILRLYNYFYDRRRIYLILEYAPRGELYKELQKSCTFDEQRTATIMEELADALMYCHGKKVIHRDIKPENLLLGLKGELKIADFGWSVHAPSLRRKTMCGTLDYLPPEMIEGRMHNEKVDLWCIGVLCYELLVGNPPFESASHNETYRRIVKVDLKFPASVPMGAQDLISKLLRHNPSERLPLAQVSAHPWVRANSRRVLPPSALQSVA
ASSAY: Functional cellular assay of Aurora kinase-B: phosphorylation of histone H3 in A549 cells
SETUP CONDITIONS: A549 cells, phospho-histone H3; read-out: IC50 of Aurora kinase-B inhibition
PARAMETER: IC50 (nM)

{"MOLECULE": "Cc1cc(Nc2ncc(F)c(NC3C(C(N)=O)[C@H]4C=C[C@@H]3C4)n2)ccc1N1CCN(C)CC1 (stereo in doubt) [Compound 60b]", "STUDY TARGET": "Aurora kinase-B (Homo sapiens, UniProt Q96GD4)", "UNIT TEXT": "nM", "REPORTED": 2490}

* * *

Tested on: A549 (lung carcinoma)
ASSAY: In vitro antiproliferation assay, A549 cells (TABLE 1 6 point assay; TABLE 2)
Format: cell-based
SETUP CONDITIONS: Homo sapiens, A549, 6 point assay; A549 cells; read-out: IC50, A549 cells
pIC50: −log10 of the molar value.
PARAMETER: pIC50

{"MOLECULE": "Cc1cc(Nc2ncc(F)c(N[C@@H]3C=C[C@H](C(N)=O)C3)n2)ccc1N1CCN(C)CC1", "STUDY TARGET": "A549 (lung carcinoma)", "REPORTED": "6.00 to 7.00"}
{"MOLECULE": "CNC(=O)c1cc(Nc2ncc(F)c(NC3C4C=CC(C4)C3C(N)=O)n2)ccc1N1CCN(C)CC1 (racemic)", "STUDY TARGET": "A549 (lung carcinoma)", "REPORTED": "6.00 to 7.00"}
{"MOLECULE": "Cc1cc(Nc2ncc(F)c(N[C@H]3CCC[C@H]3C(N)=O)n2)ccc1N1CCCC1 (racemic)", "STUDY TARGET": "A549 (lung carcinoma)", "REPORTED": "5.00 to 6.00"}
{"MOLECULE": "CN1CCC(c2cccc(Nc3ncc(F)c(N[C@H]4[C@@H](C(N)=O)[C@@H]5C=C[C@H]4C5)n3)c2)CC1", "STUDY TARGET": "A549 (lung carcinoma)", "REPORTED": "≥ 7.00"}
{"MOLECULE": "Cc1cc(Nc2ncc(F)c(N[C@H]3C=C[C@@H](C(N)=O)C3)n2)ccc1N1CCN(C)CC1", "STUDY TARGET": "A549 (lung carcinoma)", "REPORTED": "5.00 to 6.00"}
{"MOLECULE": "CN1CCN(C(=O)Cc2ccc(Nc3ncc(F)c(N[C@H]4CCC[C@H]4C(N)=O)n3)cc2)CC1 (racemic)", "STUDY TARGET": "A549 (lung carcinoma)", "REPORTED": "5.00 to 6.00"}
{"MOLECULE": "COC(=O)[C@H]1CC[C@@H](Nc2nc(Nc3ccc(N4CCN(C)CC4)c(C)c3)ncc2F)C1", "STUDY TARGET": "A549 (lung carcinoma)", "REPORTED": "5.00 to 6.00"}
{"MOLECULE": "CN1CCN(c2ccc(Nc3ncc(F)c(NC4C5C=CC(C5)C4C(N)=O)n3)cc2Cl)CC1 (racemic)", "STUDY TARGET": "A549 (lung carcinoma)", "REPORTED": "≥ 7.00"}
{"MOLECULE": "Cc1cc(Nc2ncc(F)c(NC3(C(=O)NC4CC4)CC=CC3)n2)ccc1N1CCN(C)CC1", "STUDY TARGET": "A549 (lung carcinoma)", "REPORTED": "< 5.00"}
{"MOLECULE": "CCOC(=O)N1CCN(c2cccc(Nc3ncc(F)c(NC4CCCC4C(N)=O)n3)c2)CC1 (centres unmarked)", "STUDY TARGET": "A549 (lung carcinoma)", "REPORTED": "6.00 to 7.00"}
{"MOLECULE": "Cc1cc(Nc2ncc(F)c(N[C@@H]3CCC[C@@H]3C(N)=O)n2)ccc1N1CCN(C)CC1 (stereo in doubt) [Compound 15b]", "STUDY TARGET": "A549 (lung carcinoma)", "REPORTED": "5.00 to 6.00"}
{"MOLECULE": "Cc1cc(Nc2ncc(F)c(N[C@@H]3[C@H]4CC[C@H](C4)[C@@H]3C(N)=O)n2)ccc1N1CCN(C)CC1 (racemic)", "STUDY TARGET": "A549 (lung carcinoma)", "REPORTED": "≥ 7.00"}
{"MOLECULE": "Cc1cc(Nc2ncc(F)c(N[C@@H]3[C@H]4CC[C@H](C4)[C@@H]3C(=O)NC3CC3)n2)ccc1N1CCN(C)CC1", "STUDY TARGET": "A549 (lung carcinoma)", "REPORTED": "6.00 to 7.00"}
{"MOLECULE": "Cc1cc(Nc2ncc(F)c(N[C@H]3CCC[C@@H]3C(N)=O)n2)ccc1N1CCN(C)CC1 [15d]", "STUDY TARGET": "A549 (lung carcinoma)", "REPORTED": "< 5.00"}

* * *

pIC50 reference
Test system: MOLT3 (T lymphoblast acute lymphoblastic leukemia)
ASSAY: In vitro antiproliferation assay, MOLT3 cells
Type: cell-based
SETUP CONDITIONS: Homo sapiens, MOLT-3
pIC50: −log10 of the molar value.

{"MOLECULE": "Cc1cc(Nc2ncc(F)c(NC3C4C=CC(C4)C3C(N)=O)n2)ccc1N1CCN(C)CC1 (racemic)", "pIC50": "≥ 8.00"}
{"MOLECULE": "Cc1cc(Nc2ncc(F)c(N[C@@H]3CCC[C@@H]3C(N)=O)n2)ccc1N1CCN(C)CC1", "pIC50": "≥ 6.00"}
{"MOLECULE": "Cc1cc(Nc2ncc(F)c(N[C@H]3[C@@H](C(N)=O)[C@@H]4C=C[C@H]3C4)n2)ccc1N1CCN(C)CC1 (single isomer, unassigned) [Compound 60a]", "pIC50": "≥ 8.00"}
{"MOLECULE": "Cc1cc(Nc2ncc(F)c(NC3C(C(N)=O)[C@H]4C=C[C@@H]3C4)n2)ccc1N1CCN(C)CC1 (stereo in doubt) [Compound 60b]", "pIC50": "< 6.00"}

* * *

Measured pIC50 values are reported for all entries that follow.
Test system: H1299 (non-small cell lung carcinoma)
ASSAY: In vitro antiproliferation assay, H1299 cells (TABLE 1 6 point assay; TABLE 2)
Type: cell-based
SETUP CONDITIONS: Homo sapiens, NCI-H1299, 6 point assay; H1299 cells; read-out: IC50, H1299 cells
pIC50: −log10 of the molar value.
PARAMETER: pIC50

{"MOLECULE": "Cc1cc(Nc2ncc(F)c(NC3C4C=CC(C4)C3C(N)=O)n2)ccc1NC1CCN(C)CC1 (racemic)", "REPORTED": "≥ 7.00"}
{"MOLECULE": "CN1CCN(C(=O)c2ccc(Nc3ncc(F)c(N[C@H]4CCC[C@H]4C(N)=O)n3)cc2)CC1 (racemic)", "REPORTED": "5.00 to 6.00"}
{"MOLECULE": "Cc1cc(Nc2ncc(F)c(N[C@H]3CC[C@H](C(N)=O)C3)n2)ccc1N1CCN(C)CC1", "REPORTED": "5.00 to 6.00"}
{"MOLECULE": "CCS(=O)(=O)N1CCN(c2ccc(Nc3ncc(F)c(NC4C5C=CC(C5)C4C(N)=O)n3)cc2C)CC1 (racemic)", "REPORTED": "≥ 7.00"}
{"MOLECULE": "Cc1cc(Nc2ncc(F)c(NC3(C(=O)NC4CC4)CC=CC3)n2)ccc1N1CCN(C)CC1", "REPORTED": "< 5.00"}
{"MOLECULE": "CCOC(=O)N1CCN(c2cccc(Nc3ncc(F)c(NC4CCCC4C(N)=O)n3)c2)CC1 (stereo not shown)", "REPORTED": "5.00 to 6.00"}
{"MOLECULE": "CCN1CCN(c2ccc(Nc3ncc(F)c(NC4C5C=CC(C5)C4C(N)=O)n3)cc2C)CC1 (racemic)", "REPORTED": "≥ 7.00"}
{"MOLECULE": "Cc1cc(Nc2ncc(F)c(N[C@H]3C=CC[C@H]3C(N)=O)n2)ccc1N1CCN(C)CC1 (racemic)", "REPORTED": "6.00 to 7.00"}
{"MOLECULE": "CN1CCC(c2ccc(Nc3ncc(F)c(NC4C5C=CC(C5)C4C(N)=O)n3)cc2)CC1 (racemic)", "REPORTED": "≥ 7.00"}
{"MOLECULE": "CN1CCN(c2ccc(Nc3ncc(F)c(NC4CCCC4C(N)=O)n3)cc2Cl)CC1 (stereo not shown)", "REPORTED": "6.00 to 7.00"}
{"MOLECULE": "Cc1cc(Nc2ncc(F)c(N[C@@H]3[C@H]4CC[C@H](C4)[C@@H]3C(=O)NC3CC3)n2)ccc1N1CCN(C)CC1", "REPORTED": "6.00 to 7.00"}
{"MOLECULE": "Cc1cc(Nc2ncc(F)c(N[C@H]3CCC[C@H]3C(N)=O)n2)ccc1N1CC(C)OC(C)C1 (mixture of isomers)", "REPORTED": "6.00 to 7.00"}
{"MOLECULE": "Cc1cc(Nc2ncc(F)c(N[C@H]3[C@@H](C(N)=O)[C@@H]4C=C[C@H]3C4)n2)ccc1NC1CCN(C)CC1", "REPORTED": "≥ 7.00"}
{"MOLECULE": "Cc1cc(Nc2ncc(F)c(NC3C4C=CC(C4)C3C(N)=O)n2)ccc1N1CCN(C)CC1 (racemic)", "REPORTED": "≥ 7.00"}
{"MOLECULE": "Cc1cc(Nc2ncc(F)c(NC3CCCC3C(N)=O)n2)ccc1N1CCN(C)CC1 (stereo not shown) [compound 206]", "REPORTED": "6.00 to 7.00"}
{"MOLECULE": "Cc1cc(Nc2ncc(F)c(NC34CC5CC(CC3C5)C4)n2)ccc1N1CCN(C)CC1", "REPORTED": "5.00 to 6.00"}
{"MOLECULE": "CN1CCN(c2ccc(Nc3ncc(F)c(NC4CCCC4C(N)=O)n3)cc2C(F)(F)F)CC1 (stereo not shown)", "REPORTED": "5.00 to 6.00"}
{"MOLECULE": "Cc1cc(Nc2ncc(F)c(NC3(C(=O)O)CCCC3)n2)ccc1N1CCN(C)CC1", "REPORTED": "< 5.00"}
{"MOLECULE": "COc1cc(Nc2ncc(F)c(NC3C4C=CC(C4)C3C(N)=O)n2)ccc1N1CCN(C)CC1 (racemic)", "REPORTED": "≥ 7.00"}
{"MOLECULE": "NC(=O)C1C2C=CC(C2)C1Nc1nc(Nc2cccc(C3CCNCC3)c2)ncc1F (racemic)", "REPORTED": "≥ 7.00"}
{"MOLECULE": "Cc1cc(Nc2ncc(F)c(N[C@@H]3CCC[C@@H]3C(N)=O)n2)ccc1N1CCN(C)CC1 (stereo in doubt) [Compound 15b]", "REPORTED": "5.00 to 6.00"}
{"MOLECULE": "COCc1cc(Nc2ncc(F)c(NC3C4C=CC(C4)C3C(N)=O)n2)ccc1N1CCN(C)CC1 (racemic)", "REPORTED": "≥ 7.00"}
{"MOLECULE": "Cc1cc(Nc2ncc(F)c(NC3C4CCC(C4)C3C(=O)NC3CC3)n2)ccc1N1CCN(C)CC1 (racemic)", "REPORTED": "≥ 7.00"}
{"MOLECULE": "Cc1cc(Nc2ncc(F)c(NC3CCCC3C(N)=O)n2)ccc1N1CCN(C)CC1 (racemic) [Compound 15]", "REPORTED": "6.00 to 7.00"}
{"MOLECULE": "CN1CCN(c2ccc(Nc3ncc(F)c(NC4C5C=CC(C5)C4C(N)=O)n3)cc2C#N)CC1 (racemic)", "REPORTED": "≥ 7.00"}
{"MOLECULE": "Cc1cc(Nc2ncc(F)c(N[C@H]3C=C[C@@H](C(N)=O)C3)n2)ccc1N1CCN(C)CC1", "REPORTED": "5.00 to 6.00"}
{"MOLECULE": "Cc1cc(Nc2ncc(F)c(N[C@H]3CC[C@@H](C(=O)O)C3)n2)ccc1N1CCN(C)CC1", "REPORTED": "< 5.00"}
{"MOLECULE": "NC(=O)C1CCCC1Nc1nc(Nc2cccc(N3CCOCC3)c2)ncc1F (stereo not shown)", "REPORTED": "5.00 to 6.00"}
